Attribute: melting point

Examples with their reported melting point follow.
>  <Molecule>
O=C(CCCCCBr)Nc1cc(Cl)c(O)c(Cl)c1

>  <melting point>
113 to 114 °C

$$$$
>  <Molecule>
CC(=O)Nc1cnc(-c2ccccc2)c(-c2ccc(=O)n(C(C)C)n2)c1

>  <melting point>
207 to 208 °C

$$$$

Qu. Answer with the recorded melting point of "Cc1ccccc1NC(=O)Nc1ccc(C(=O)N2CCCCc3sccc32)cc1" only.
Ans. 179 to 182 °C

Qu. Supply recorded melting point for "Cc1nn(C)c2c(=O)n(C)c(=O)n(C)c12" here.
Ans. 210 to 211 °C

Qu. For the molecule "CCn1ncc2c1ncc1c(OCCC(C)C)nc3cc(C)nn3c12" , give its reported melting point.
Ans. 60 to 62 °C

* * *

Assay Readout: melting point

These recorded examples may help you get a feel for the data.
>  <Compound>
CC(NC(=O)Cc1cc(F)cc(F)c1)C(=O)C1(N)N=C(c2ccccc2F)c2ccccc2N(C)C1=O (centres undefined)

>  <melting point>
185 to 188 °C

$$$$
>  <Compound>
CC(C)(C)c1cc(C=Cc2ccccc2NC(=O)NCc2ccccn2)cc(C(C)(C)C)c1O

>  <melting point>
207 to 210 °C

$$$$
>  <Compound>
C=CC[C@@H]1C[C@@H](COc2ccc(-c3ccc(C#N)cc3)cc2)N(CCCC2CCCCC2)C1=O

>  <melting point>
157 to 159 °C

$$$$

Qu. Could you please provide reported melting point for CC(Cc1ccc(OCc2ccncc2)cc1)NCC(O)c1cccc(C(F)(F)F)c1 (centres undefined) ? Thanks!
Ans. 83 to 90 °C

Qu. Tell me its melting point given "Cc1c(Cc2cccc(C(F)(F)F)c2)oc2cccc(O)c12" as the entry.
Ans. 91 to 92 °C

Qu. Look up and state reported melting point for "O=C(CC1CCCC1)NC[C@H]1CN(c2ccc3c(c2)CCCc2cn[nH]c2-3)C(=O)O1"
Ans. 205 to 208 °C

Qu. For the compound CCOC(=O)C1=C(C)NC(=S)N(C(=O)c2ccc(OC)cc2)C1c1cccc([N+](=O)[O-])c1 (centres undefined) , give its measured melting point value.
Ans. 130 to 132 °C

Qu. Give the reported value of melting point for this record: "CC(C)(C)Nc1c(NCc2ccncc2)c(=O)c1=O"
Ans. 271 to 272 °C

Qu. Quick one: give measured melting point for NS(=O)(=O)NCC1CCc2ccccc2O1 (centres undefined)
Ans. 100 to 101 °C

* * *

Assay Readout: melting point

The cases that follow already have their melting point on record.
>  <Molecule>
CC(C)(C)NC(=O)Nc1nc2nc(NC3CCOCC3)ncc2cc1Oc1ccc(F)cc1F

>  <melting point>
195 to 201 °C

$$$$
>  <Molecule>
COCCOc1ccc(CN)cc1O

>  <melting point>
89 to 90 °C

$$$$
>  <Molecule>
CC/C=C(\c1ccccc1N1CCCCC1)C(C(N)=O)c1ccc(C(=O)O)cc1 (stereo not drawn)

>  <melting point>
174 to 175 °C

$$$$
>  <Molecule>
O=C(O)Cc1ccc(F)cc1Sc1ccc([N+](=O)[O-])cc1

>  <melting point>
160 to 164 °C

$$$$
>  <Molecule>
CCCC(=O)Nc1ccn(C2OC(CO)C(O)C2O)c(=O)n1 (stereo not drawn)

>  <melting point>
108 to 110 °C

$$$$

Qu. Tell me its melting point given "O=C(CNC(=O)CSC(=O)c1ccccc1)CNC(=O)CSC(=O)c1ccccc1" as the entry.
Ans. 134 to 140 °C

Qu. Please report melting point for the following molecule: CC1CCc2cc(C(O)C(C)N3CCC(n4c(=O)[nH]c5ccccc54)CC3)ccc2S1 (stereo not drawn)
Ans. 237 to 239 °C

* * *

Entries and their melting point values follow.

Consider the reported melting point for these compounds:
>  <Compound>
Fc1cc(F)c2[nH]c3c(c2c1)CC(N1CCCCC1)CC3 (stereo not given)

>  <Assay Readout>
melting point

>  <Measured Result>
> 290 °C

$$$$
>  <Compound>
CCCOc1ccccc1-c1nc(O)cc(CC)n1

>  <Assay Readout>
melting point

>  <Measured Result>
97 to 98.5 °C

$$$$
>  <Compound>
CC(C)(C)OC(=O)Cn1cc(Cl)c(-c2cc(Cl)cc(Cl)c2)n1

>  <Assay Readout>
melting point

>  <Measured Result>
86 °C

$$$$
>  <Compound>
OC1CCCCC1n1ccnc1 (stereo not given)

>  <Assay Readout>
melting point

>  <Measured Result>
127 to 131 °C

$$$$
>  <Compound>
CCN(CC)C(=O)Nc1ccc(S(=O)(=O)n2c(=O)n(C3CCCCC3)c3cc(Cl)ccc32)c(OC)c1

>  <Assay Readout>
melting point

>  <Measured Result>
250 °C

$$$$
>  <Compound>
COC(=O)c1ccc2c(c1)Sc1ccccc1NC2=O

>  <Assay Readout>
melting point

>  <Measured Result>
255 to 257 °C

$$$$
>  <Compound>
Cc1cc2c(=O)c(N3CCC(O)(c4ccc(F)cc4)CC3)coc2cc1OCc1ccccc1

>  <Assay Readout>
melting point

>  <Measured Result>
245 to 246 °C

$$$$
>  <Compound>
O=C(Nc1ccc2c(c1)C(=O)CCCC2)OCc1ccccc1

>  <Assay Readout>
melting point

>  <Measured Result>
120 to 121 °C

$$$$

Qu. Answer with the recorded melting point for the compound listed here: "Cc1nc2c(cc1CCCO)c(=O)c(C(=O)NCc1ccc(Cl)cc1)cn2C"
Ans. 176 to 177 °C

Qu. Using known records, supply melting point for N#Cc1ccc(C2CC(=O)N(Cc3ccccc3)Cc3cncn32)cc1 (stereo not given)
Ans. 65 °C

Qu. Identify measured melting point corresponding to "Cc1cc(Br)cnc1CCCCNc1ncc(Cc2ccc(F)cc2)c(=O)[nH]1"
Ans. 172 to 173 °C

Qu. For the compound "CCCC[C@]1(CC)CS(=O)(=O)c2cc(OC)c(OC)cc2[C@@H](c2ccccc2)N1O" , report melting point.
Ans. 174 to 175 °C

* * *

Assay Readout: melting point

# annotated cases, reported melting point shown
>  <Compound>
O=C(Nc1cc2ncc(CN3CCCC3)cc2cc1Cl)c1ccc(-c2ccc(F)cc2)cc1

>  <melting point>
188 °C

$$$$
>  <Compound>
CSCC#Cc1cc(F)c2ncc(C(=O)NCc3ccc(Cl)cc3)c(O)c2c1

>  <melting point>
259 to 261 °C

$$$$
>  <Compound>
Clc1ccc(-c2nc3ccccc3nc2Cl)c(Cl)c1

>  <melting point>
140 to 150 °C

$$$$
>  <Compound>
CC(=O)OC1C(C)OC(Sc2ccccc2)C(OCc2ccccc2)C1OC(C)=O (stereo not given)

>  <melting point>
124 °C

$$$$
>  <Compound>
CCCCOc1cc(CCC(=O)O)ccc1OCCCc1cn(-c2ccc(C(F)(F)F)cn2)nc1OCC

>  <melting point>
92 to 93 °C

$$$$
>  <Compound>
O=C(O)C1C(=O)c2cc(F)ccc2N=C1c1ccccc1 (stereo not given)

>  <melting point>
297 °C

$$$$
>  <Compound>
CCCC(=O)c1cnc2c(OC)cccc2c1Nc1ccccc1COC

>  <melting point>
128 to 130 °C

$$$$
>  <Compound>
CC(C)N1CC(OCC2CC2)(C(F)(F)F)c2cc(Cl)ccc2NC1=O (stereo not given)

>  <melting point>
170 °C

$$$$

Qu. Return value of melting point for input "Nc1c(-c2ccc(-c3ccccc3)cc2)nc2c(Cl)cc(Cl)cc2c1C(=O)O" , no commentary.
Ans. 244 to 245 °C

Qu. Given "COc1cc(C(=O)N2Cc3ccccc3Cc3ccccc32)ccc1NC(=O)c1ccccc1C" , respond with its melting point.
Ans. 209 to 210 °C

Qu. Using known records, supply melting point for "CS(=O)(=O)c1nccc(Cl)n1"
Ans. 91 to 93 °C

Qu. Hello, please tell me recorded melting point for this one: "CC1(C)CS(=O)(=O)CC(C)(C)N1Cl"
Ans. 163 °C

Qu. Retrieve melting point measured for COc1cc2c(cc1OC)C[C@@H](N1CCN(c3ccccc3OC)CC1)[C@H](O)C2 (relative stereo) and print it.
Ans. 172 to 174 °C

Qu. Determine from records and report melting point for "CCOC(=S)c1ccc2scc(C)c2c1"
Ans. 67 to 69 °C

Qu. Look up and state reported melting point for "O=C(c1cccs1)c1cnn2c(-c3cccc(NCc4ccc(Cl)cc4)c3)ccnc12"
Ans. 149 to 152 °C

Qu. Quickly give me recorded melting point for "O=C(O)Cc1cc2c(c(C(=O)O)c1)NCCC2"
Ans. 210 to 211 °C

Qu. Return the recorded melting point value; entry: "CCOC(=N)c1cccc(Cc2ccccc2)c1"
Ans. 121 to 122 °C

Qu. Fill in reported melting point for this entry: COc1ccccc1NC(=S)C1CCc2nc[nH]c2C1 (stereo not given)
Ans. 218 to 219 °C

Qu. Return the recorded melting point value; entry: CC1=NC=C(c2ccc3c(c2)NC(=O)CO3)C(c2ccccc2)S1 (stereo not given)
Ans. 187 to 189 °C

Qu. Give the measured melting point for "COc1ccc(C(=O)Nc2ccc(C(=O)N3CCOCC3)cc2)cc1C12CC3CC(CC(C3)C1)C2"
Ans. 238 to 241 °C
